test.method.notes: small molecules captured by biotinylated probe aFST – biochemical, small-molecule microarray, fluorescence 635/667, stem cell growth factor project, primary screen (AID 1086);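 further: score merges 667 nm fluorescence with signal-to-noise of each printed compound spot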
cond: higher = more signal
endpoint: composite z-score

[
  {
    "molecule": "[N-]=[N+]=NCc1ccccc1C[C@]1(C(=O)NCCN2CCOCC2)N=C(c2ccc(OCCCO)cc2)O[C@H]1c1ccccc1",
    "recorded.measurement": 0.632
  },
  {
    "molecule": "C[C@H]1NC(=O)C([C@@H](C)OCc2ccccc2)NC(=O)[C@@]23C(=O)N[C@@H](Cc4ccccc4)C2[C@H](C)[C@@]2(C)O[C@H]2C3/C=C/CC/C=C/CNC1=O (some centres undefined)",
    "recorded.measurement": 0.114
  },
  {
    "molecule": "CC(C)CCC[C@@H](C)[C@H]1CC[C@@]2(C)C3=C(CC[C@]12C)[C@@]1(C)CC[C@H](OC(=O)c2ccc(N)cc2)C(C)(C)C1CC3 (some centres undefined)",
    "recorded.measurement": 0.0576
  },
  {
    "molecule": "CC(=O)NCCCC[C@@H]1NC(=O)[C@@H]2C[C@H](C(=O)NCCCC[N+](C)(C)C)[C@H](c3cccc(OCCO)c3)N2C1=O",
    "recorded.measurement": -0.204
  },
  {
    "molecule": "CN(C)CCCCNC(=O)[C@H]1C[C@H]2C(=O)N[C@@H](CCCC[N+](C)(C)C)C(=O)N2[C@H]1c1cccc(OCCO)c1",
    "recorded.measurement": -0.268
  },
  {
    "molecule": "O=C1N(CCS(=O)(=O)c2ccccc2)c2ccccc2[C@H]2OC(c3ccc(OCCCO)cc3)=N[C@@]12CCS(=O)(=O)c1ccccc1",
    "recorded.measurement": 1.43
  },
  {
    "molecule": "CN(C)C(=O)[C@@]1(Cc2ccccc2N=[N+]=[N-])N=C(c2ccc(OCCCO)cc2)O[C@H]1c1ccccc1N=[N+]=[N-]",
    "recorded.measurement": 1.53
  },
  {
    "molecule": "CC(C)CNC(=O)[C@@]1(c2ccc([N+](=O)[O-])cc2)CC(=O)N(C(C)C)[C@@H]1c1ccc(CO)cc1",
    "recorded.measurement": -0.761
  }
]

Ask | # composite z-score lookup, item COc1ccc(CCNC(=O)[C@@H]2c3ccccc3C(=O)N(Cc3ccccc3)[C@H]2c2ccc(CO)cc2)cc1
Reply | 0.0887

Ask | Then CC1C=C(CCCO)C=C(C(=O)OCCS(C)(=O)=O)C(C(=O)OCCS(C)(=O)=O)=CN1Cc1cccc(OC(F)(F)F)c1 (centres undefined) ?
Reply | 0.106

Ask | Then NC(=O)NCC#Cc1ccc2c(c1)[C@]1(C(=O)N2)[C@H](c2ccc(O)cc2)N2[C@H](c3ccccc3)[C@H](c3ccccc3)OC(=O)[C@H]2[C@@H]1C(=O)NC[C@H](O)c1ccccc1 ?
Reply | -0.268

Ask | Then O=C1O[C@H](c2ccccc2)[C@H](c2ccccc2)N2[C@H]1[C@@H](C(=O)NC[C@H](O)c1ccccc1)[C@]1(C(=O)Nc3ccccc31)[C@H]2c1ccccc1OCCO ?
Reply | -0.821

Ask | Then C[N+](C)(C)CCCCNC(=O)[C@H]1C[C@H]2C(=O)NCC(=O)N2[C@H]1c1ccc(O)cc1 ?
Reply | 0.383

Ask | Then CCOC(=O)C[C@H]1[C@H](OC(=O)Cc2ccc3c(c2)OCO3)[C@@H](NC(=O)c2ccccc2)c2cc(OCCCO)ccc2N1C(=O)c1ccccc1 ?
Reply | 0.0452
